// provenance: ChEMBL document CHEMBL2150960

test-summary: Half life in dog at 10 mg/kg
Type: ADME, organism-based, Canis lupus familiaris
Design: dose 10 mg/kg
conditions: in vivo
reported-endpoint: half-life (min)
Expressed in min, but write only the number.

Cc1nccnc1-c1ccc(CC(=O)N[C@H](C)c2ccc(OCC(F)(F)F)cn2)cc1 ... 48.6

Request: State the recorded half-life for this entry: `Cc1ncoc1-c1ccc(CC(=O)N[C@H](C)c2ccc(OCC(F)(F)F)cn2)cc1`
Result: 66

----------
test-summary: Binding affinity to T-type calcium channel
reported-endpoint: pKi
Units for pKi: none; it is -log10 of a concentration expressed in mol/L.

# example entries with known answers
C[C@@H](NC(=O)Cc1ccc(N2CC[C@H](F)C2)cc1)c1ccc(OCC(F)(F)F)cn1 ... 9.52
Cc1ncoc1-c1ccc(CC(=O)N[C@H](C)c2ccc(OCC(F)(F)F)cn2)cc1 ... 9.70
C[C@@H](NC(=O)Cc1ccc(C2CC2)cc1)c1ccc(OCC(F)(F)F)cn1 ... 8.92

Now examine the next entry.
Request: Which pKi is reported for this compound? `Cc1nccnc1-c1ccc(CC(=O)N[C@H](C)c2ccc(OCC(F)(F)F)cn2)cc1`
Result: 8.26
